test_protocol: self-splicing fitness, log relative to wild type (ln ratio); higher = more splicing; Tetrahymena group I intron in knt gene, E. coli kanamycin selection, DiMSum; sequences stand for … in CUCUCU…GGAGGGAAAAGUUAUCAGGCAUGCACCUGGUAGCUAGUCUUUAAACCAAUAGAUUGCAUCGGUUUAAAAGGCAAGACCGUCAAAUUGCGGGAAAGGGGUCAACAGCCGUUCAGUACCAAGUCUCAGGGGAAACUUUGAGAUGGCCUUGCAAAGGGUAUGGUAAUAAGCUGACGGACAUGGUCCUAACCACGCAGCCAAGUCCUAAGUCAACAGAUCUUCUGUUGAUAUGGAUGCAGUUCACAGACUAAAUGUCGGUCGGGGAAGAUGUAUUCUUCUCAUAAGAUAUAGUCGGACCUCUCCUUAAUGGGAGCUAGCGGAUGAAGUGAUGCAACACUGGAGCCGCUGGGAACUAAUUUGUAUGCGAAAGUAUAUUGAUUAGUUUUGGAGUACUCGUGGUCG;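 note: selection with 25 µg/mL kanamycin versus none on LB agar overnight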
condition_summary: 37 °C
Exercise: for every item that follows, state its recorded self-splicing fitness (ln).
One number for each entry.

For every listed record, write down its self-splicing fitness (ln).
1. GCAUAGCAAUAUUACGUUAC
2. UGAAAGCAAUAUUACGCGUU
3. CGCAAGCAAUAUUACGCGUU
4. UCUAAGCAAUAUUACGGUGU
5. GUGUAGCAAUAUUACGAUGC
6. UAGGAGCAAUAUUACGGCGG

Given back:
1. -1.85
2. -3.1
3. -2.86
4. -1.34
5. -0.552
6. -0.013

====

test_protocol: self-splicing fitness, log relative to wild type (ln ratio); higher = more splicing; Tetrahymena group I intron in knt gene, E. coli kanamycin selection, DiMSum; sequences stand for … in CUCUCU…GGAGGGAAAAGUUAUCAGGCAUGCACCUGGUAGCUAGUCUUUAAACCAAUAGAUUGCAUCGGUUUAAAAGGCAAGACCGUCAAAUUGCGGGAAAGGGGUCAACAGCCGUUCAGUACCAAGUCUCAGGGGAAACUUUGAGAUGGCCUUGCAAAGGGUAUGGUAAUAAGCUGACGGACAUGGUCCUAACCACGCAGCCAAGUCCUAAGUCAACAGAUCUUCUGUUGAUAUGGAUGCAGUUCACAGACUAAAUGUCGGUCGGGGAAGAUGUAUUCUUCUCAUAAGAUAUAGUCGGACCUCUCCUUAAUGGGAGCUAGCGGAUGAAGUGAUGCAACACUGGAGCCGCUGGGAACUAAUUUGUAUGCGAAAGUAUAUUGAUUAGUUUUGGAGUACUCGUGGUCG
condition_summary: 30 °C
So basically, the class depends on measured self-splicing fitness (ln), and the ranges are bucket A (below -3), bucket B (-3 to below -2), bucket C (-2 or more)

GCAAAGCAAUAUUACGACAU bucket C

Asked: Determine which band this sequence sits in: GCCCAGCAAUAUUACGUUUC
Given back: bucket C

====

test_protocol: self-splicing fitness, log relative to wild type (ln ratio); higher = more splicing; Tetrahymena group I intron in knt gene, E. coli kanamycin selection, DiMSum; sequences stand for … in CUCUCU…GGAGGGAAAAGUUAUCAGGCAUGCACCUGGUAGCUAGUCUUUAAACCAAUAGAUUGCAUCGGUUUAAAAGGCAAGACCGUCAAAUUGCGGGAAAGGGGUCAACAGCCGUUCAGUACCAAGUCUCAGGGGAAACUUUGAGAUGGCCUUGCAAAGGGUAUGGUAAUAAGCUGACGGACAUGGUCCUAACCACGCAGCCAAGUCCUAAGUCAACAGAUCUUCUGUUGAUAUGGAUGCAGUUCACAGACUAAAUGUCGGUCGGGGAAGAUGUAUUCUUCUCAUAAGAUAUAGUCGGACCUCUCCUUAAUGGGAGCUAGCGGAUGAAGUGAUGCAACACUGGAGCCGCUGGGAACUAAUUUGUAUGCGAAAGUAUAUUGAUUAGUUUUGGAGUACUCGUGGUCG
condition_summary: 30 °C
Threshold rule: self-splicing fitness (ln) greater than or equal to -2 is true (1); below that, false (0).

GCAUAGCAAUAUUACGCAAA true (1)
UGACAGCAAUAUUACGAUGG true (1)
UCCAAGCAAUAUUACGCCUC false (0)
GAGUAGCAAUAUUACGCCAG false (0)
UUCAAGCAAUAUUACGGCAC false (0)

Asked: Reported self-splicing fitness (ln) reaches at least -2 for GAGUAGCAAUAUUACGCAUG ?
Given back: true (1)

Asked: I'd appreciate it if you could say whether CUCUAGCAAUAUUACGAGAU has self-splicing fitness (ln) at least equal to -2.
Given back: false (0)

Asked: Tell me whether self-splicing fitness (ln) is at least -2 here: UACAAGCAAUAUUACGCCUG
Given back: true (1)

====

test_protocol: self-splicing fitness, log relative to wild type (ln ratio); higher = more splicing; Tetrahymena group I intron in knt gene, E. coli kanamycin selection, DiMSum; sequences stand for … in CUCUCU…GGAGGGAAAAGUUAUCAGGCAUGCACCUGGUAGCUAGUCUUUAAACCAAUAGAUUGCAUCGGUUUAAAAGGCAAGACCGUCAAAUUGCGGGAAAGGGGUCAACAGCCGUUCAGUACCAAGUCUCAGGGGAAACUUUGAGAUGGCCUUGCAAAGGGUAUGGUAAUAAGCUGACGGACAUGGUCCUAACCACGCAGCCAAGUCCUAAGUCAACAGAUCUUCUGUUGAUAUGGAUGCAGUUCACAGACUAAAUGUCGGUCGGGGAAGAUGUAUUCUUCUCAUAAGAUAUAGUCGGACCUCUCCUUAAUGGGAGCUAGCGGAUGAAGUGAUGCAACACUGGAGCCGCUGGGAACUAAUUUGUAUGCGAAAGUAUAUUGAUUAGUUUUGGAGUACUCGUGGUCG
condition_summary: 37 °C
Dear colleague, classification is by self-splicing fitness (ln), with ranges listed here: low = under -2, mid = from -2 up to -0.7, high = -0.7 and over

GAAGAGCAAUAUUACGGGUA mid
GGGUAGCAAUAUUACGAUCC mid
CGGCAGCAAUAUUACGGUAA low
UAAUAGCAAUAUUACGGACG high

Asked: Please let me know in which category the item UCGCAGCAAUAUUACGGAGA belongs.
Given back: mid

Asked: GET /class?item= AUUCAGCAAUAUUACGUUGC
Given back: low

Asked: Please classify: CGCGAGCAAUAUUACGGCCA
Given back: mid

Asked: Sort into band: UGUUAGCAAUAUUACGGGGG
Given back: mid

====

test_protocol: self-splicing fitness, log relative to wild type (ln ratio); higher = more splicing; Tetrahymena group I intron in knt gene, E. coli kanamycin selection, DiMSum; sequences stand for … in CUCUCU…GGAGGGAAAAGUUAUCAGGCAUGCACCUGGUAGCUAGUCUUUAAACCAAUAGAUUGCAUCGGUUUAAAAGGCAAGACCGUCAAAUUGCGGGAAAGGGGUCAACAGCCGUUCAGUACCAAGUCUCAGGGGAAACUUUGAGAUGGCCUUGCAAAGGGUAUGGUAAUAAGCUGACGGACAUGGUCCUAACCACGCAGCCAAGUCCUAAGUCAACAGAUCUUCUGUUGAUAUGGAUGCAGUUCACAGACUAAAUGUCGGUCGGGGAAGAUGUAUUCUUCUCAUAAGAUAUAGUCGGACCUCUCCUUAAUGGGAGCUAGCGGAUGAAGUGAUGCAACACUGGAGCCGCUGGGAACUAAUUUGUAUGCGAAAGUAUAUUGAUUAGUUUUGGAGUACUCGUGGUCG
condition_summary: 30 °C
quantity_name: self-splicing fitness (ln)
One number for each entry.

ACGAAGCAAUAUUACGAACA -1.62
CCCGAGCAAUAUUACGAUGU -3.46
UGGUAGCAAUAUUACGCCAA -1.77
GAGCAGCAAUAUUACGCUUC -2.37
CCAGAGCAAUAUUACGUAAC -3.56

For every record below, what is its self-splicing fitness (ln)?
1. GUUGAGCAAUAUUACGCGUU
2. AUAAAGCAAUAUUACGUAGC

Given back:
[-4.25, -3.74]

====

test_protocol: self-splicing fitness, log relative to wild type (ln ratio); higher = more splicing; Tetrahymena group I intron in knt gene, E. coli kanamycin selection, DiMSum; sequences stand for … in CUCUCU…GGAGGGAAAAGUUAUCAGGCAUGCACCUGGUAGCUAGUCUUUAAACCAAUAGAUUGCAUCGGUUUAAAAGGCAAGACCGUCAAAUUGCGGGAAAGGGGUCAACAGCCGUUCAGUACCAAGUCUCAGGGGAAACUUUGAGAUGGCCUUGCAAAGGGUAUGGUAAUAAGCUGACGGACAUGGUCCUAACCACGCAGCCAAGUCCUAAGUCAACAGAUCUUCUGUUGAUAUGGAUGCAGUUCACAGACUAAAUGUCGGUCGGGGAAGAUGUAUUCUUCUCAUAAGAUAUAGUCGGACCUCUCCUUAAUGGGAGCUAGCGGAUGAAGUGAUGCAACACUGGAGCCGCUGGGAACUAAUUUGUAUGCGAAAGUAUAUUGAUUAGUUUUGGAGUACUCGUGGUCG
condition_summary: 37 °C
Dear colleague, classification is by self-splicing fitness (ln), with ranges listed here: low end (below -2), middle (-2 to below -1), high end (-1 or more)

Some solved entries appear below for comparison.
AAUCAGCAAUAUUACGUAAA high end
GGGUAGCAAUAUUACGGUAG middle

Asked: Which category does the recorded self-splicing fitness (ln) put UAACAGCAAUAUUACGCGUA in?
Given back: high end

Asked: Which bin, given its self-splicing fitness (ln), does AUAUAGCAAUAUUACGGGUG occupy?
Given back: middle

Asked: Bin this entry: GAACAGCAAUAUUACGGACG
Given back: high end

Asked: Place this sequence in its band: GACCAGCAAUAUUACGUACA
Given back: high end
